target: mu opioid receptor (Homo sapiens, UniProt P35372); assay: Filtration binding assay: mu opioid receptor
Sequence (P35372 whole entry): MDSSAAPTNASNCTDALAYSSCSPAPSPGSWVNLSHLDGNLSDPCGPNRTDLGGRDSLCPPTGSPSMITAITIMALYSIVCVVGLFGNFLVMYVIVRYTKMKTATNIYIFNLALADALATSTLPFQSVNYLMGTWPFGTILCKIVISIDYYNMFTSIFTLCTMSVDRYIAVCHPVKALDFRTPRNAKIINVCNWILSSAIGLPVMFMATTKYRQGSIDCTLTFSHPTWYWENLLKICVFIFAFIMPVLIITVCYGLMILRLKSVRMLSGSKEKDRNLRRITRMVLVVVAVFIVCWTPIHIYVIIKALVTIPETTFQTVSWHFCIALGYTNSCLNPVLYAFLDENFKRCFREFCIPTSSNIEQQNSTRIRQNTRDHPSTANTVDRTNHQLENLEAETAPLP
measured.quantity: IC50 (µM)
Please reply with the bare figure in µM and do not write the unit itself.

Some entries whose results are on file:
>>> print(df.to_string())
                                   molecule  unit_string  test_value
0  COc1cc(CCNC[C@@H](O)CN2CN(c3ccc(F)cc3)C3(CCN(Cc4ccc(Cl)cc4)CC3)C2=O)c([N+](=O)[O-])cc1OC           µM        2.49
1  O=C1N(C[C@@H](O)CN(CCc2ccccc2)Cc2ccccc2)CN(c2ccc(F)cc2)C12CCN(CC1CCCCCCC1)CC2           µM        0.58
2  CCCCN(Cc1ccccc1)C[C@H](O)CN1CN(c2ccccc2)C2(CCN(C3Cc4cccc5c4[C@@H](CCC5)C3)CC2)C1=O (stereo partly shown)           µM        0.35

Please tell me the measured IC50 for `COc1cccc(CNC[C@H](O)CN2CN(c3ccc(F)cc3)C3(CCN(CC4CCCCCCC4)CC3)C2=O)c1` ; system: mu opioid receptor (Homo sapiens, UniProt P35372).
0.82

Please tell me the measured IC50 for `O=C1N(C[C@H](O)CNCCc2ccc3c(c2)OCO3)CN(c2ccc(F)cc2)C12CCN(Cc1ccc(Cl)cc1)CC2` ; system: mu opioid receptor (Homo sapiens, UniProt P35372).
0.95

Please tell me the measured IC50 for `O=C1N(C[C@@H](O)CNCc2cc(F)ccc2F)CN(c2ccc(F)cc2)C12CCN(CC1CCCCCCC1)CC2` ; system: mu opioid receptor (Homo sapiens, UniProt P35372).
0.52

Numbers sourced from patent US7582649B2.
